Test system: M14 melanoma
procedure.summary: NCI tumour cell line growth inhibition, 48 h; in the data active = GI50 below about 0.43 µM; inactive = the rest
// allowed return values: active, inactive

Past entries and their recorded results:
{"compound": "C/C(=N\\NC(=S)N1CCCCCC1)c1ccccn1", "target.or.test.system": "M14 melanoma", "discrete.label": "active"}
{"compound": "Clc1nc(Cl)nc(Nc2cccc3ccccc23)n1", "target.or.test.system": "M14 melanoma", "discrete.label": "inactive"}
{"compound": "C=CCc1ccc(O)c(-c2ccc(O)c(CC=C)c2)c1", "target.or.test.system": "M14 melanoma", "discrete.label": "inactive"}
{"compound": "CCN(Cc1ccc(F)cc1)c1ccc(CO)c(Br)c1", "target.or.test.system": "M14 melanoma", "discrete.label": "inactive"}
{"compound": "C[C@@]12CCC[C@@](C)(C(=O)O)C1CC[C@]13CC(=O)[C@](CO)(C1)[C@@H](O)CC32 (stereo not given in full)", "target.or.test.system": "M14 melanoma", "discrete.label": "inactive"}
{"compound": "CS(=O)(=O)Nc1cc(-c2ccc3ncnc(Nc4c(Cl)ccc5c4OCO5)c3c2)cnc1Cl", "target.or.test.system": "M14 melanoma", "discrete.label": "active"}

## Input Hey, what did the test say about O=[P@@]1(c2ccccc2)O[C@H](COCc2ccccc2)[C@@H](OCc2ccccc2)[C@H](OCc2ccccc2)[C@H]1NCc1ccccc1 ?
## Output inactive

## Input Hey, what did the test say about COc1ccc(C(O)(CCC(C)C)C(CN2CCOCC2)c2ccc(Cl)cc2)cc1 (stereo not given) ?
## Output inactive

## Input Hey, what did the test say about COc1ccc(C2=C(c3ccc(OC)cc3)C(=O)N3CCCC3C2)cc1 (stereo not given) ?
## Output inactive

## Input Hey, what did the test say about COC(=O)c1ccc2c(c1)/C(=C\c1cc(Br)c(O)c(Br)c1)C(=O)N2 ?
## Output inactive

---

# TGI listing for each entry below
Tested on: K-562 leukemia
procedure.summary: NCI tumour cell line growth inhibition, 48 h

Please review the entries below; each comes with its answer.
{"compound": "CC(C)(C)[Si](C)(C)OC1C(=O)C[C@H]2CCCC[C@@H]12 (stereo not given in full)", "target.or.test.system": "K-562 leukemia", "recorded.value": "> 100 µM"}
{"compound": "O=P1(c2ccccc2)Nc2ccccc2SSc2ccccc2N1", "target.or.test.system": "K-562 leukemia", "recorded.value": "51.4 µM"}
{"compound": "CC1=C(CO)C2=C(C)C3(CC3)[C@@](C)(O)C(=O)C2=C1", "target.or.test.system": "K-562 leukemia", "recorded.value": "> 100 µM"}
{"compound": "COc1ccc(C(O)(CCC(C)C)C(CN2CCOCC2)c2ccc(Cl)cc2)cc1 (stereo not given)", "target.or.test.system": "K-562 leukemia", "recorded.value": "47 µM"}

## Input Answer with reported TGI of O=C1c2ccccc2C(=O)c2c1nc1ccccc1c2-c1cncc(-c2c3c(nc4ccccc24)C(=O)c2ccccc2C3=O)c1
## Output > 100 µM

## Input Answer with reported TGI of [N-]=[N+]=N/C1=C/CCCCC(=O)C1
## Output > 100 µM

## Input Answer with reported TGI of Cn1c2ccccc2c(=O)c2cccc(C(=O)NC(CS)C(=O)O)c21 (stereo not given)
## Output > 100 µM

---

Test system: ACHN renal
procedure.summary: NCI tumour cell line growth inhibition, 48 h
result.type: TGI

{"compound": "COC(=O)C1=C(O)c2ccc(Cl)cc2S(=O)(=O)N1C", "recorded.value": "> 100 µM"}

## Input Answer with reported TGI of [N-]=[N+]=CC(=O)OC1Cc2ccccc2C1
## Output 81.9 µM

## Input Answer with reported TGI of O=C(O)c1ccc(C(=O)O)c2c(C(=O)O)ccc(C(=O)O)c12
## Output > 100 µM

## Input Answer with reported TGI of CC1OC(OC2C(OC(=O)[C@]34CCC(C)(C)C[C@H]3C3=CC[C@@H]5[C@@]6(C)CC[C@H](OC7OC(CO)C(O)C(O)C7OC7OC(CO)C(O)C(O)C7O)C(C)(C)[C@@H]6CC[C@@]5(C)[C@]3(C)CC4)OCC(O)C2O)C(O)C(OC2OCC(O)C(O)C2O)C1OC1OCC(O)C(OC2OCC(O)C(O)C2O)C1O (some centres undefined)
## Output 25.9 µM

## Input Answer with reported TGI of Nc1ccn([C@H]2CO[C@@H](CO)[C@@H]2O)c(=O)n1
## Output > 100 µM

## Input Answer with reported TGI of O=c1[nH]c2ccc(O)cc2o1
## Output > 100 µM

---

Test system: MCF7 breast
procedure.summary: NCI tumour cell line growth inhibition, 48 h; in the data active = GI50 below about 0.43 µM; inactive = the rest
// allowed return values: 1 for active, -1 for inactive

Past entries and their recorded results:
{"molecule": "O=C1CCC/C=C\\C[C@H]2C=CC(=O)/C2=C/C[C@H](C/C=C\\CC(F)(F)F)O1", "target.or.test.system": "MCF7 breast", "discrete.label": 1}
{"molecule": "CC(C)=CCc1cc(O)cc2c1OC(C=C(C)C)C1=C2C(=O)C2=C(C1=O)S(=O)(=O)CCN2 (centres undefined)", "target.or.test.system": "MCF7 breast", "discrete.label": -1}
{"molecule": "COc1ccc(-c2nnc(N3CCN(C(=O)CN4CCN(c5ccccc5)CC4)CC3)nc2-c2ccc(OC)cc2)cc1", "target.or.test.system": "MCF7 breast", "discrete.label": -1}

## Input Hey, what did the test say about O=C(Nc1cc(C(F)(F)F)ccc1Cl)c1cccc(NC2=C(Cl)C(=O)N(Cc3ccccc3)C2=O)c1 ?
## Output -1

## Input Hey, what did the test say about O=C(NNc1ccccc1)C(=O)NNc1ccccc1 ?
## Output -1

## Input Hey, what did the test say about CN(C)CCC(=O)C(=Cc1ccc(O)cc1)C(=O)CCN(C)C ?
## Output -1

## Input Hey, what did the test say about O=[P@@]1(c2ccccc2)O[C@H](COCc2ccccc2)[C@@H](OCc2ccccc2)[C@H](OCc2ccccc2)[C@H]1NCc1ccccc1 ?
## Output -1

## Input Hey, what did the test say about O=[N+]([O-])c1ccc(CI)cc1 ?
## Output -1

## Input Hey, what did the test say about COc1cc(/C=C\c2cc(OC)c(OC)c(OC)c2)cc(N/C=C\C(=O)c2cc(OC)c(OC)c(OC)c2)c1OC ?
## Output -1

---

Tested on: SNB-19 CNS
procedure.summary: NCI tumour cell line growth inhibition, 48 h
Lab note: compare TGI against 20 µM. Equal or greater, write true. Smaller, write false.

Past entries and their recorded results:
{"compound": "COC(=O)c1ccc(-c2c(C#N)[n+](=O)c3cc(Cl)c(Cl)cc3n2[O-])cc1", "discrete.label": "true"}
{"compound": "O=[N+]([O-])c1ccc(CI)cc1", "discrete.label": "false"}
{"compound": "O=C(NNc1ccccc1)C(=O)NNc1ccccc1", "discrete.label": "true"}
{"compound": "Cc1cc(/N=C/c2ccc(F)cc2)n(-c2ccccc2)n1", "discrete.label": "true"}
{"compound": "COc1ccc(C2=C(c3ccc(OC)cc3)C(=O)N3CCCC3C2)cc1 (stereo not given)", "discrete.label": "true"}
{"compound": "CC1(C)N=C(N)N=C(N)N1c1ccc(CCCCc2ccc(Cl)c(S(=O)(=O)F)c2)c(Cl)c1", "discrete.label": "true"}
{"compound": "CCCC(=O)N1CCN(c2ccc3c(c2)OC(C)O3)CC1 (stereo not given)", "discrete.label": "true"}
{"compound": "CC(=O)O[C@H]1CC[C@@]2(C)C(=CC[C@H]3[C@@H]4C/C(=C\\c5ccc(N(C)C)cc5)[C@H](OC(C)=O)[C@@]4(C)CC[C@@H]32)C1", "discrete.label": "true"}
{"compound": "COc1ccc(-c2nnc(N3CCN(C(=O)CN4CCN(c5ccccc5)CC4)CC3)nc2-c2ccc(OC)cc2)cc1", "discrete.label": "true"}
{"compound": "CC1=C(CO)C2=C(C)C3(CC3)[C@@](C)(O)C(=O)C2=C1", "discrete.label": "false"}

## Input Given C#Cc1nc(Nc2cc(C)[nH]n2)c2ccccc2n1 , state whether its TGI is at least 20 µM.
## Output true

## Input Given COc1cccc2c1C(=O)c1c(O)c3c(c(O)c1C2=O)C[C@@](O)(/C(C)=N/NC(=O)c1ccc(Cl)cc1)C[C@@H]3OC1CC(N)C(O)C(C)O1 (stereo not given in full) , state whether its TGI is at least 20 µM.
## Output false

## Input Given CN(C)CCNC(=O)c1cccc2c(Nc3ccc(S(=O)(=O)N=C(N)N)cc3)c3ccccc3nc12 , state whether its TGI is at least 20 µM.
## Output false

---

Tested on: MALME-3M melanoma
procedure.summary: NCI tumour cell line growth inhibition, 48 h; in the data active = GI50 below about 0.43 µM; inactive = the rest
// allowed return values: 1.0 = active, 0.0 = inactive

Past entries and their recorded results:
{"compound": "Cn1c(=O)c(Oc2ccc(F)cc2)cc2cnc(NC3CCOCC3)nc21", "target.or.test.system": "MALME-3M melanoma", "discrete.label": 0.0}
{"compound": "COC(=O)C1=CN(CC2=CC(=O)C(C)=CC2=O)C=C(C(=O)OC)C1c1cccc(OC)c1", "target.or.test.system": "MALME-3M melanoma", "discrete.label": 0.0}
{"compound": "CC1(C)N=C(N)N=C(N)N1c1ccc(CCCCc2ccc(Cl)c(S(=O)(=O)F)c2)c(Cl)c1", "target.or.test.system": "MALME-3M melanoma", "discrete.label": 0.0}
{"compound": "CCN(Cc1ccc(F)cc1)c1ccc(CO)c(Br)c1", "target.or.test.system": "MALME-3M melanoma", "discrete.label": 0.0}
{"compound": "COc1ccc(C(O)(CCC(C)C)C(CN2CCOCC2)c2ccc(Cl)cc2)cc1 (stereo not given)", "target.or.test.system": "MALME-3M melanoma", "discrete.label": 0.0}
{"compound": "O=C1CCC/C=C\\C[C@H]2C=CC(=O)/C2=C/C[C@H](C/C=C\\CC(F)(F)F)O1", "target.or.test.system": "MALME-3M melanoma", "discrete.label": 0.0}

## Input Hey, what did the test say about COc1cc(C2CC(c3cccc(Nc4ccncc4)c3)=NN2c2ccc(Cl)cc2)cc(OC)c1OC (stereo not given) ?
## Output 0.0

## Input Hey, what did the test say about CN(C)c1ccc(N=Nc2ccccn2)c(O)c1 ?
## Output 0.0

## Input Hey, what did the test say about Cn1c(Nc2ccc(C(F)(F)F)cc2)nc2cc(Oc3ccnc(-c4ncc(C(F)(F)F)[nH]4)c3)ccc21 ?
## Output 1.0

## Input Hey, what did the test say about Clc1nc(Cl)nc(Nc2cccc3ccccc23)n1 ?
## Output 0.0

## Input Hey, what did the test say about COc1ccc(-c2nsc3c2NC(=O)CC3c2cccc(OC)c2)cc1 (stereo not given) ?
## Output 0.0
